Quick list: GI50 per entry.
test system: HOP-62; assay: NCI tumour cell line growth inhibition, 48 h
The source made the active and inactive calls. Cut-off read from the data, not from the text of the source: active = GI50 up to about 1.1 µM and inactive = higher.

| compound | assay-target | GI50 |
| --- | --- | --- |
| CCOC(=O)C(=Cc1[nH]c2ccccc2c1-c1c[nH]c2ccccc12)C(=O)OCC | HOP-62 | 14.2 µM (inactive) |
| N#C/C(=C\NC(=S)c1ccncc1)c1nc2ccccc2s1 | HOP-62 | > 100 µM (inactive) |
| O=c1/c(=C/c2ccco2)sc2nc3ccccc3n12 | HOP-62 | > 100 µM (inactive) |
| CO[C@@](c1ccccc1)(c1nc(C#N)c(N)o1)C(F)(F)F | HOP-62 | > 100 µM (inactive) |
| CN(Cc1cc(Cl)c(Cl)cc1NC(=O)CN)[C@H]1CCCC[C@@H]1N1CCCC1 | HOP-62 | 92.7 µM (inactive) |
| COc1cc2nc3n(c(=O)c2cc1OC)CCCCC3 | HOP-62 | > 100 µM (inactive) |
| c1ccc([S+](c2ccccc2)c2ccc(Sc3ccc([S+](c4ccccc4)c4ccccc4)cc3)cc2)cc1 | HOP-62 | 39.7 µM (inactive) |
| COc1ccc2c(c1)CC[C@@H]1C2CC[C@]2(C)C(=O)N(CCN(C)C)C(=O)CC12 (stereo partly drawn) | HOP-62 | > 100 µM (inactive) |
| CCN(CC)CCOC(c1ccccc1)c1ccccc1.CCOC(=O)Nc1ccc(S(=O)(=O)NCCCl)cc1.CCOC(=O)Nc1ccc(S(=O)(=O)NCCCl)cc1.Nc1ccc(C(=O)O)c(O)c1 | HOP-62 | > 100 µM (inactive) |
| Cc1ccc(/C=N/NS(=O)(=O)c2ccccc2)cc1 | HOP-62 | > 100 µM (inactive) |
| Cc1cc(-c2nc3ccccc3s2)ccc1N | HOP-62 | 49.9 µM (inactive) |
| Cc1ccc(S(=O)(=O)NCCCCC(N)C(=O)O)cc1 (stereo not drawn) | HOP-62 | > 100 µM (inactive) |
| CC(=O)[C@@H]1[C@@H](OC(=O)CCC(C)COC2OC(CO)C(O)C(O)C2O)C[C@H]2[C@@H]3CC=C4C[C@@H](OC5OC(CO)C(OC6OC(C)C(O)C(O)C6O)C(O)C5OC5OC(C)C(O)C(O)C5O)CC[C@]4(C)[C@H]3CC[C@]12C (stereo partly drawn) | HOP-62 | > 100 µM (inactive) |
| CC(C)(C)CN1[C@@H]2CCCC[C@H]2N(CC(C)(C)C)P1(=O)Cc1ccccc1 | HOP-62 | 16.4 µM (inactive) |
| O=c1[nH]c2ccccc2nc1CBr | HOP-62 | 21.3 µM (inactive) |
| CCOC(=O)C(=[N+]=[N-])C(=O)CN1C(=O)c2ccccc2C1=O | HOP-62 | > 100 µM (inactive) |
| COc1ccc(-c2oc3cc(O)c(OC)c(O)c3c(=O)c2O)cc1 | HOP-62 | 4.73 µM (inactive) |
| CCCCCCCCCC[C@H](O)[C@H](O)CC[C@@H](O)[C@H]1CC[C@@H]([C@H]2CC[C@H](CCCCCCC[C@@H](O)CC3=C[C@H](C)OC3=O)O2)O1 | HOP-62 | 2.42 µM (inactive) |
| Cc1c2c(n(Cc3ccccn3)c1C)NN=C(C#N)S2(=O)=O | HOP-62 | > 100 µM (inactive) |
| NNC(=O)C(=O)N/N=C1\CCCC1C(=O)CCC(=O)Nc1cccc(Cl)c1 (stereo not drawn) | HOP-62 | > 100 µM (inactive) |
| CC(O)c1nc(C#N)c(N)o1 (stereo not drawn) | HOP-62 | > 100 µM (inactive) |
| CCc1cc2c(c3c1CCCC3=O)CC1(Cc3ccc(C(=O)OC)cc3C1)C2 (stereo not drawn) | HOP-62 | > 100 µM (inactive) |
| N#Cc1cccc(-n2[nH]c(=O)ccc2=O)c1 | HOP-62 | > 100 µM (inactive) |
| Cc1oc2c(C)c3oc(=O)cc(C)c3cc2c1CNC(=O)[C@@H]1OCCOCCOCCOCCOCCOC1C(=O)O (stereo partly drawn) | HOP-62 | > 100 µM (inactive) |
| O=C(N/C=C/C=C/Sc1ccccc1)OCc1ccccc1 | HOP-62 | 24.5 µM (inactive) |
| CC(=O)NC(CCCNC(=O)OCc1ccccc1)C(=O)NCc1ccccc1 (stereo not drawn) | HOP-62 | > 100 µM (inactive) |
| CC1=NN2C(=N)/C(=C/c3ccccc3)C(=O)N=C2S1 | HOP-62 | > 100 µM (inactive) |
| CC1=C2c3ccccc3N(S(=O)(=O)c3ccccc3)[C@H]2[C@H](C(=O)N2C3CC4CC[C@@]3(CS2(=O)=O)C4(C)C)CC1 (stereo partly drawn) | HOP-62 | 16.4 µM (inactive) |
